Tested on: HUNK
test-settings: concentration: 1 μM, replicates: in singlicate; n = 1;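 note: KINOMEscan kinase panel screen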
readout: %Inh (%)
Express it in %; write the number only.

O=S(=O)(c1ccc(-c2ccnc3[nH]ccc23)cc1)N1CCCC1: 0

The reported value for NC(=O)c1nnc2ccccc2c1N in terms of %Inh is 0

Sure, the documented %Inh for Cn1ccc2ncnc(Oc3cccc(C(=O)Nc4ccccc4)c3)c21 is 0

====

System: DDR2
test-settings: concentration: 1 μM, replicates: in singlicate; n = 1
readout: %Inh (%)
Report as a plain number; the unit % is understood.

Cc1c(O)cccc1Nc1ccnc2ccc(C(F)(F)F)cc12.Cl [GW466413]: 24
CC(=O)Nc1nc2cnc(Nc3cc(NC(=O)c4cccc(CCC#N)c4)ccc3C)nc2s1: 86
COc1ccc(CNC(=O)NC2CCN(c3ccnc(Nc4cc(OC)c(OC)c(OC)c4)n3)C2)cc1 (stereo not shown) [GSK1379748]: 45

Lab note: NC(=O)c1nnc2ccccc2c1N gave %Inh of 11

# compound COc1ccc(Nc2nccc(NCCNC(=O)Nc3ccccc3F)n2)cc1 [GSK1379901] ; its %Inh = 0

Recorded %Inh (compound COc1cccc(-c2cc(-c3c[nH]nc3-c3ccccn3)ccn2)c1 [GW680338] ): 37

Consider Fc1cc(Cl)ccc1Nc1ccnc2cc(-c3ccc(CN4CCCCC4)o3)ccc12 [GW560116] . Its measured %Inh is 36

So, O=C1NC(=O)C(N2CCc3ccccc32)=C1c1ccccc1Cl [SB-373598] ? Its %Inh was 14

====

Quick reference for %Inh among some molecules
System: MAP3K4
test-settings: concentration: 1 μM, replicates: in singlicate; n = 1
Report as a plain number; the unit % is understood.

Just so you know, measured %Inh for O=C(Nc1n[nH]c2cc(-c3cccc(F)c3F)ccc12)C1CC1 [SB-733894] came out at 0

%Inh in this record for COc1cc2ncnc(Nc3ccc4nc(-c5ccccc5)[nH]c4c3)c2cc1OC.Cl [GW282450] : 9

Form field %Inh, entry Cc1ccc(NC(=O)Nc2cccc(Cl)c2)cc1-c1ccc(C(=O)Nc2ccncc2)cc1 [GSK1398468] : 7

Sample COc1ccc(CNC(=O)NC2CCN(c3ccnc(Nc4cc(OC)c(OC)c(OC)c4)n3)C2)cc1 (stereo not drawn) [GSK1379748] ; %Inh observed: 2

%Inh recorded for this molecule, CC(C)(C)c1ccc(C(=O)Nc2cn3cc(Cl)ccc3n2)cc1 , is 0

For this molecule ( COc1ccc(Nc2nccc(NCCNC(=O)Nc3ccccc3F)n2)cc1 [GSK1379901] ), measured %Inh is 52

%Inh reported for this molecule Cc1c(O)cccc1Nc1ccnc2ccc(C(F)(F)F)cc12.Cl [GW466413] : 0

Entry O=C(Nc1n[nH]c2nc(-c3nccs3)c(Br)cc12)C1CCCC1 [SB-742609] , %Inh reported as 28

# %Inh of Cc1ccc(NC(=O)Nc2cc(C(C)(C)C)nn2-c2ccccc2)cc1 [GSK1014915] = 3

====

System: AURKB
test-settings: concentration: 1 μM, replicates: in singlicate; n = 1
Recorded %Inh for the following compounds

A selection of reference data follows.
O=C(Nc1n[nH]c2nc(-c3nccs3)c(Br)cc12)C1CCCC1: 13%
O=C1NC(=O)C(N2CCc3ccccc32)=C1c1ccccc1Cl: 10%

Tested system AURKB; %Inh recorded for NC(=O)c1nnc2ccccc2c1N was 32%
